Biological target: T1, native IHFNTHI (integration host factor of nontypeable Haemophilus influenzae) (nontypeable Haemophilus influenzae …, UniProt P43723 1-96; P43724 1-94)
T1 construct: also called NTHI IHF
T1 sequence 1: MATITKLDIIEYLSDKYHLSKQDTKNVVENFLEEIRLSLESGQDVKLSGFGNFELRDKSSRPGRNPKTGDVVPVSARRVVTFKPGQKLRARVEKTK
T1 sequence 2: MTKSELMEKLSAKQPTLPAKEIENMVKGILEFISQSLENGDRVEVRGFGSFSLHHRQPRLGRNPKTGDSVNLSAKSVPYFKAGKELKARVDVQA
Assay: SPR Biacore 3000, HuMab immobilized, IHFNTHI as analyte
Readout Label: log10(kon) (log10 of the value in M⁻¹ s⁻¹)
Record value = log10 of kon given in M⁻¹ s⁻¹.

// solved cases for log10(kon) follow
- Binder: "humanized anti-tip monoclonal antibody, heavy chain SEQ ID NO: 3 and light chain SEQ ID NO: 9 (antibody, V domains shown, also called H10212 (1F8.F1 Humanized HC3) + L10212 (1F8.F1 Humanized LC3)) VH: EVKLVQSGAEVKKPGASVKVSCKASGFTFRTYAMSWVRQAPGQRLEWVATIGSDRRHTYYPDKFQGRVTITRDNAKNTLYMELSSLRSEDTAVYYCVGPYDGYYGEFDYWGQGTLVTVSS VL: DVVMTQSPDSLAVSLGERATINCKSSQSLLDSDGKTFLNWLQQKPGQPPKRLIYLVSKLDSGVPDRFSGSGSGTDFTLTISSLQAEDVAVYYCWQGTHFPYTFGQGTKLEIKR"
  log10(kon): 3.23
- Binder: "humanized anti-tip monoclonal antibody, heavy chain SEQ ID NO: 2 and light chain SEQ ID NO: 9 (antibody, V domains shown, also called H10211 (1F8.F1 Humanized HC2) + L10212 (1F8.F1 Humanized LC3)) VH: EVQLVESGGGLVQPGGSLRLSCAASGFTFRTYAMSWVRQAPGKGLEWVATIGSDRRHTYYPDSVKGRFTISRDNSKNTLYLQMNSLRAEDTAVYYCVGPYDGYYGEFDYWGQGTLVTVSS VL: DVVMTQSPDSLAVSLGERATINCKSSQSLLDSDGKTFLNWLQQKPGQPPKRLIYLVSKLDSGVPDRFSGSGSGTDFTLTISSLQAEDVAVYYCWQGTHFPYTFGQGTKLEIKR"
  log10(kon): 3.86
- Binder: "humanized anti-tip monoclonal antibody, heavy chain SEQ ID NO: 1 and light chain SEQ ID NO: 8 (antibody, V domains shown, also called H10210 (1F8.F1 Humanized HC1) + L10211 (1F8.F1 Humanized LC2)) VH: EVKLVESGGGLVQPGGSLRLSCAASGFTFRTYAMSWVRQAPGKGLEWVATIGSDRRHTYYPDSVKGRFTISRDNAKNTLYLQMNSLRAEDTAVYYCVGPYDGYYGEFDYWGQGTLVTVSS VL: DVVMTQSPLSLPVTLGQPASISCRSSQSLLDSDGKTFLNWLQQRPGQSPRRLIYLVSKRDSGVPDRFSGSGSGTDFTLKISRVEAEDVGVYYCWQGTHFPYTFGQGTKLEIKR"
  log10(kon): 6.15
- Binder: "humanized anti-tip monoclonal antibody, heavy chain SEQ ID NO: 1 and light chain SEQ ID NO: 9 (antibody, V domains shown, also called H10210 (1F8.F1 Humanized HC1) + L10212 (1F8.F1 Humanized LC3)) VH: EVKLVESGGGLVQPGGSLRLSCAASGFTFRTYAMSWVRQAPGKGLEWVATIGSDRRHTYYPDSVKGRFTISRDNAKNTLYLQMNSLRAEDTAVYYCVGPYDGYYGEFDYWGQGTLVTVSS VL: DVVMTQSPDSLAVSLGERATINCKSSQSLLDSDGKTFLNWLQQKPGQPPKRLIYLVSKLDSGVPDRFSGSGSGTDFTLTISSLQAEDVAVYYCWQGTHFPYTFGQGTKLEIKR"
  log10(kon): 5.80
- Binder: "humanized anti-tip monoclonal antibody, heavy chain SEQ ID NO: 1 and light chain SEQ ID NO: 7 (antibody, V domains shown, also called HuTipMab; TP-21949) VH: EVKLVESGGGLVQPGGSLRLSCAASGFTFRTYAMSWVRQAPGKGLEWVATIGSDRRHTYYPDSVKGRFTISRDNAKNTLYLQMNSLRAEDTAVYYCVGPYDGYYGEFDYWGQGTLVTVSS VL: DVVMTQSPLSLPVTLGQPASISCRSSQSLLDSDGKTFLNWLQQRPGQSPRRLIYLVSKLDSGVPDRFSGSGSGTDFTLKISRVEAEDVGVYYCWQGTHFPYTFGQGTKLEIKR"
  log10(kon): 3.15

Let us move to another entry and its log10(kon).
Ask: For the binder shown here, humanized anti-tip monoclonal antibody, heavy chain SEQ ID NO: 2 and light chain SEQ ID NO: 7 (antibody, V domains shown, also called H10211 (1F8.F1 Humanized HC2) + L10210 (1F8.F1 Humanized LC1)) VH: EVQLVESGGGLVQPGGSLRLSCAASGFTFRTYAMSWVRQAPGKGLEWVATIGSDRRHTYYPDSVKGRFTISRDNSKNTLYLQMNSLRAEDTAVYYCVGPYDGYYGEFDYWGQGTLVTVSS VL: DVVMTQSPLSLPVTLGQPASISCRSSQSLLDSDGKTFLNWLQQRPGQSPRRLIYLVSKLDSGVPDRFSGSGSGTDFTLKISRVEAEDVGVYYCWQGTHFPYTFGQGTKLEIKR , give the reported log10(kon).
Result: 5.81
